- method.description: Pharmacokinetic experiment in rats
- Assay type: in vivo, Sprague-Dawley rats
- assay.conditions: male, Sprague-Dawley, plasma; rat, IV 3 mg/kg; read-out: MRTINF_pred
observable: MRT inf (h)

| molecule | observable | unit.annotation | experimental.value |
| --- | --- | --- | --- |
| [2H]C([2H])([2H])C([2H])([2H])c1nc(C(N)=O)c(Nc2ccc(N3CCC(N4CCN(C)CC4)CC3)c(OC)c2)nc1NC1CCOCC1 [Compound T-4] | MRT inf | h | 4.56 |
| [2H]C([2H])([2H])Oc1cc(Nc2nc(NC3CCOCC3)c(CC)nc2C(N)=O)ccc1N1CCC(N2CCN(C)CC2)CC1 [Compound T-1] | MRT inf | h | 4.2 |
| CCc1nc(C(N)=O)c(Nc2ccc(N3CCC(N4CCN(C)CC4)CC3)c(OC)c2)nc1NC1CCOCC1 [Gilteritinib, reference compound] | MRT inf | h | 3.44 |

* * *

- method.description: Pharmacokinetic experiment in rats
- Format: in vivo, Sprague-Dawley rats
- assay.conditions: male, Sprague-Dawley, plasma; rat, PO 10 mg/kg
- Protocol: Six male Sprague-Dawley rats, 7 to 8 weeks old, weighing approximately 210 g, were divided into 2 groups with 3 rats in each group. […] Immediately after the collection of the blood samples, the test tubes were gently inverted at least 5 times to ensure the fully mixing and placed on ice. […] Pharmacokinetic parameters were calculated based on the plasma concentrations of each animal at different time points.
observable: AUC(0-t) (ng·h/mL)

| compound | observable | experimental.value |
| --- | --- | --- |
| [2H]C([2H])([2H])C([2H])([2H])c1nc(C(N)=O)c(Nc2ccc(N3CCC(N4CCN(C)CC4)CC3)c(OC)c2)nc1NC1CCOCC1 | AUC(0-t) | 666 |

a. CCc1nc(C(N)=O)c(Nc2ccc(N3CCC(N4CCN(C)CC4)CC3)c(OC)c2)nc1NC1CCOCC1 [Gilteritinib, reference compound]
b. [2H]C([2H])([2H])Oc1cc(Nc2nc(NC3CCOCC3)c(CC)nc2C(N)=O)ccc1N1CCC(N2CCN(C)CC2)CC1
Between a and b , which one shows the larger AUC(0-t) value? Pick one; state its label.
b
(b: 510 ng·h/mL, a: 317 ng·h/mL)

* * *

- method.description: Pharmacokinetic experiment in rats
- Assay type: in vivo, Sprague-Dawley rats
- assay.conditions: male, Sprague-Dawley, plasma; rat, PO 10 mg/kg
observable: Cmax (ng/mL)

| molecule | Cmax [ng/mL] |
| --- | --- |
| [2H]C([2H])([2H])C([2H])([2H])c1nc(C(N)=O)c(Nc2ccc(N3CCC(N4CCN(C)CC4)CC3)c(OC)c2)nc1NC1CCOCC1 [Compound T-4] | 61.2 |
| CCc1nc(C(N)=O)c(Nc2ccc(N3CCC(N4CCN(C)CC4)CC3)c(OC)c2)nc1NC1CCOCC1 [Gilteritinib, reference compound] | 34.6 |
| [2H]C([2H])([2H])Oc1cc(Nc2nc(NC3CCOCC3)c(CC)nc2C(N)=O)ccc1N1CCC(N2CCN(C)CC2)CC1 [Compound T-1] | 48.4 |

* * *

- method.description: Pharmacokinetic experiment in rats
- Type: in vivo, Sprague-Dawley rats
- assay.conditions: male, Sprague-Dawley, plasma; rat, IV 3 mg/kg
observable: Tmax (min)

| compound | unit.annotation | Tmax |
| --- | --- | --- |
| [2H]C([2H])([2H])Oc1cc(Nc2nc(NC3CCOCC3)c(CC)nc2C(N)=O)ccc1N1CCC(N2CCN(C)CC2)CC1 | min | 4.8 |
| [2H]C([2H])([2H])C([2H])([2H])c1nc(C(N)=O)c(Nc2ccc(N3CCC(N4CCN(C)CC4)CC3)c(OC)c2)nc1NC1CCOCC1 | min | 4.8 |
| CCc1nc(C(N)=O)c(Nc2ccc(N3CCC(N4CCN(C)CC4)CC3)c(OC)c2)nc1NC1CCOCC1 [Gilteritinib, reference compound] | min | 4.8 |

These measurements were taken from patent US11512074B2.
